assay: antivirals protecting cells from dengue CPE – CPE readout, HTS (AID 540333); conditions: Dengue virus CPE inhibition in host cells, at 20 µM
In all, about 10,000 compounds went through this assay and about 320 (3.2%) were called active. Cut-off read from the data, not from the text of the source: active = CPE inhibition mostly above about 9.1% (no sharp cut-off); inactive = mostly below about 7.2%. For the sample, actives were picked, then their nearest neighbours and some compounds at random.
Write down one outcome, taken from active, inactive

| Molecule | Class Assignment |
| --- | --- |
| Cc1cccc(CN2CCc3c(OCC(=O)NCc4ccco4)cccc3C2=O)c1 | inactive |

Would you mind telling me which call this test gave "O=C(COc1cccc2c1CCN(Cc1ccc(Br)cc1)C2=O)NCc1ccco1" ?
active

Would you mind telling me which call this test gave "O=C(COc1cccc2c1CCN(Cc1ccccc1)C2=O)NCc1ccco1" ?
inactive

Would you mind telling me which call this test gave "O=C1c2cccc(OCC(=O)N3CCCc4ccccc43)c2CCN1Cc1ccccc1" ?
inactive

Would you mind telling me which call this test gave "O=C1c2cccc(OCc3ccc(F)cc3)c2CCN1Cc1ccc(F)cc1" ?
inactive

Would you mind telling me which call this test gave "Cc1ccc(COc2cccc3c2CCN(Cc2ccc(F)cc2)C3=O)cc1" ?
active

###

assay: antivirals protecting cells from dengue CPE – CPE readout, HTS (AID 540333); settings: Dengue virus CPE inhibition in host cells, at 20 µM
Screen size: about 10,000 compounds; about 320 (3.2%) were called active. Cut-off read from the data, not from the text of the source: active = CPE inhibition mostly above about 9.1% (no sharp cut-off); inactive = mostly below about 7.2%. The list comes from a sample in which actives are over-represented; it also holds close analogues and randomly drawn compounds.
Write down one outcome, taken from t (active), f (inactive)

| Compound | Class Assignment |
| --- | --- |
| Cc1csc(NC(=O)[C@@H](NC(=O)c2ccccc2)C(C)C)n1 | f |

Would you mind telling me which call this test gave "c1nc(N2CCC3(CC2)OCCO3)c2[nH]cnc2n1" ?
f

Would you mind telling me which call this test gave CC(=O)c1ccc(N(C(=O)Cn2nnc(-c3ccccc3)n2)C(C(=O)NC2CCCCC2)c2ccccn2)cc1 (configuration not stated) ?
f

Would you mind telling me which call this test gave "COc1cc(/C=C2\SC(N)=NC2=O)ccc1OCC(=O)Nc1ccc(C)cc1" ?
f

Would you mind telling me which call this test gave "CCOc1ccc(/C=C2\SC(N3CCc4ccccc4C3)=NC2=O)cc1" ?
t

Would you mind telling me which call this test gave "CCOC(=O)c1cccc(C2=CC(=O)C[C@H](c3ccc(OC)cc3)C2)c1" ?
t

Would you mind telling me which call this test gave "Fc1ccc(CSc2ncnc3scc(-c4ccccc4)c23)cc1" ?
f

Would you mind telling me which call this test gave "COc1cc(NC(=O)CN2C(=O)C(c3ccccc3)=NC23CCCCCC3)cc(OC)c1" ?
t

Would you mind telling me which call this test gave "COc1ccc2c(c1)-c1nc(/N=C/c3ccc(O)c(OC)c3)sc1CC2" ?
f

Would you mind telling me which call this test gave "CCCCn1[nH]c(-c2ccccc2)cc1=O" ?
f

Would you mind telling me which call this test gave "O=C(CSc1nc2ccc(Cl)cc2[nH]1)N1CCN(C(=O)c2ccco2)CC1" ?
f

Would you mind telling me which call this test gave "NS(=O)(=O)c1ccc(NC(=S)NCc2ccccc2Cl)cc1" ?
f

Would you mind telling me which call this test gave CC(C)(C)NC(=O)C(c1c[nH]c2ccccc12)N(C(=O)Cn1nnc(-c2ccc(Cl)cc2)n1)c1ccccc1F (configuration not stated) ?
t

###

For each of the compounds below, state its CPE inhibition.
experiment: antivirals protecting cells from dengue CPE – CPE readout, HTS (AID 540333); conditions: Dengue virus CPE inhibition in host cells, at 20 µM; stronger effect = higher value
Among all 10,000 compounds or so, about 320 (3.2%) were called active. Shown is part of a subset that was picked to be rich in actives.

Worked cases, CPE inhibition given:
| Compound | CPE inhibition |
| --- | --- |
| CCN1C(=O)[C@H]2[C@@H](c3ccc(C)cc3)N3C(=O)N(c4ccc(OC)cc4)C(=O)[C@@]3(CC)[C@H]2C1=O | 0.62% (inactive) |
| Cc1cccc([C@@H]2[C@@H]3C(=O)N(Cc4ccccc4)C(=O)[C@@H]3[C@]3(Cc4ccccc4)C(=O)N(c4ccccc4)C(=O)N23)c1 | 0.915% (inactive) |

API: the following record is the query input.
Name the recorded CPE inhibition for O=C1N(c2cccc(Cl)c2)C(c2ccc(Cl)cc2)N2CCCN12 (centres undefined) .
4.13% (inactive)

###

assay: antivirals protecting cells from dengue CPE – CPE readout, HTS (AID 540333); conditions: Dengue virus CPE inhibition in host cells, at 20 µM; stronger effect = higher value
The whole screen tested about 10,000 compounds, of which about 320 (3.2%) were called active. Shown is part of a subset that was picked to be rich in actives.
Property Label: CPE inhibition (%)
Answers are plain numbers, in %.

Worked cases, CPE inhibition given:
| Molecule | CPE inhibition (%) |
| --- | --- |
| O=C(CSc1nnc(CNC(=O)C23CC4CC(CC(C4)C2)C3)n1-c1ccc(F)cc1)Nc1ccc(F)cc1 | 3.73 |
| O=C(NCc1nnc(SCc2ccccc2)n1-c1ccc(F)cc1)C12CC3CC(CC(C3)C1)C2 | 15.9 |
| CC(C)(C)c1ccc(C(=O)NCc2nnc(SCC(=O)N3CCCc4ccccc43)n2-c2ccccc2)cc1 | 5.59 |
| O=C(NC(=S)N1CCN(c2ccc(F)cc2)CC1)C12CC3CC(CC(C3)C1)C2 | 0.245 |

Name the recorded CPE inhibition for "O=C(CSc1nnc(CNC(=O)C23CC4CC(CC(C4)C2)C3)n1-c1ccccc1)Nc1ccccc1" .
1.45

###

experiment: antivirals protecting cells from dengue CPE – CPE readout, HTS (AID 540333); conditions: Dengue virus CPE inhibition in host cells, at 20 µM
In all, about 10,000 compounds went through this assay and about 320 (3.2%) were called active. Cut-off read from the data, not from the text of the source: active = CPE inhibition mostly above about 9.1% (no sharp cut-off); inactive = mostly below about 7.2%. For the sample, actives were picked, then their nearest neighbours and some compounds at random.
Write down one outcome, taken from YES = active, NO = inactive

| Compound | Class Assignment |
| --- | --- |
| COCCNC(=S)N1CCc2cc(OC)c(OC)cc2C1COc1ccc(C(C)C)cc1 (stereo unspecified) | YES |

Would you mind telling me which call this test gave "Nc1c(C(=O)c2ccc(Cl)cc2)sc2nc3c(cc12)CCC3" ?
NO

Would you mind telling me which call this test gave "CN(C)c1ccc(-c2nc3ccccn3c2/N=C/c2ccc(Br)cc2)cc1" ?
YES

Would you mind telling me which call this test gave "COCCNC(=S)N/N=C(\C)c1ccc2cc(OC)ccc2c1" ?
NO

Would you mind telling me which call this test gave CC(=O)CC[C@@H](C)O[C@@H]1OC(C)[C@H](O)CC1O (stereo partly specified) ?
NO

Would you mind telling me which call this test gave CCc1ccc(OCC2c3cc(OC)c(OC)cc3CCN2C(=S)NCCOC)cc1 (stereo unspecified) ?
YES

###

assay: antivirals protecting cells from dengue CPE – CPE readout, HTS (AID 540333); conditions: Dengue virus CPE inhibition in host cells, at 20 µM
In all, about 10,000 compounds went through this assay and about 320 (3.2%) were called active. Cut-off read from the data, not from the text of the source: active = CPE inhibition mostly above about 9.1% (no sharp cut-off); inactive = mostly below about 7.2%. Only a selection was taken, and actives are over-represented in it overall.
Write down one outcome, taken from active, inactive

Would you please look over these solved cases?
| Molecule | Class Assignment |
| --- | --- |
| O=C(CSc1nnc(SCc2ccccc2Cl)s1)N/N=C/c1c[nH]c2ccccc12 | inactive |
| CC(=O)N1CCN(CC(=O)Nc2ccccc2Sc2ccccc2)CC1 | inactive |
| COc1ccccc1-c1nnc(NC(=O)C2=COCCO2)o1 | inactive |
| COC(=O)c1ccccc1NC(=O)C1CCCO1 (stereo not drawn) | inactive |
| COC(=O)CNC(c1ccccc1)c1cc(Br)ccc1NC(=O)CNC(=O)OCc1ccccc1 (stereo not drawn) | active |
| COc1ccc(C)cc1NCC(=O)Nc1ccc(C(C)(C)C)cc1 | active |
| Cc1ccc(OCC(=O)Nc2cc(S(=O)(=O)N3CCCCC3)ccc2C)c([N+](=O)[O-])n1 | inactive |
| Cc1nn(-c2ccccc2)c(C)c1/C=N/NC(=O)CSc1nnc(SCc2cccc3ccccc23)s1 | inactive |
| CCCCC(=O)Nc1cccc(NC(=S)NC(=O)Cc2ccccc2)c1 | inactive |
| COc1ccccc1NC(=S)N1CCN(C/C=C/c2ccccc2)CC1 | inactive |

Would you mind telling me which call this test gave "O=C(Oc1cccc(/C=N/Nc2nc(Nc3ccccc3)nc(N3CCOCC3)n2)c1)c1ccco1" ?
inactive

Would you mind telling me which call this test gave "Cc1ccc(/C=C2\SC(=S)N(CCC(=O)NNS(=O)(=O)c3ccc(C)cc3)C2=O)cc1" ?
inactive

Would you mind telling me which call this test gave CC1CN(CC(=O)Nc2ccccc2Sc2ccccc2)CC(C)O1 (stereo not drawn) ?
inactive

Would you mind telling me which call this test gave "CCCCOc1ccc(/C=C/C(=O)OCC(=O)NC(=O)NCC(C)C)cc1OCC" ?
inactive

Would you mind telling me which call this test gave CC1CCCCN1CC(=O)Nc1ccccc1Sc1ccccc1 (stereo not drawn) ?
active

###

assay: antivirals protecting cells from dengue CPE – CPE readout, HTS (AID 540333); conditions: Dengue virus CPE inhibition in host cells, at 20 µM; stronger effect = higher value
Among all 10,000 compounds or so, about 320 (3.2%) were called active. The full list was thinned out, with actives kept by preference.
Property Label: CPE inhibition

| Molecule | CPE inhibition |
| --- | --- |
| Cc1cccc(OCCCC(=O)Nc2ccc(N(C)C)cc2)c1 | 0.66% (inactive) |
| Cc1ccc(S(=O)(=O)NNC(=S)NC(=O)c2ccc([N+](=O)[O-])cc2)cc1 | inactive |
| COc1ccc(NC(=O)CSc2ccccc2)cc1S(=O)(=O)N1CCCCC1 | inactive |
| COc1ccc(NC(=O)CCC2CCCCC2)cc1S(=O)(=O)N1CCCCC1 | 11.6% (active) |
| Cc1ccc(NC(=S)c2ccccc2)cc1 | inactive |

Name the recorded CPE inhibition for "Cc1ccc(C)c(NC(=S)N(C)CCc2ccccn2)c1" .
inactive
